molecular target: furin, P09958; assay: furin cleavage Z-score vs untreated control; higher = more cleavage, active = 3.5 or more, inactive = 1 or less, 8 variable residues between constant flanks; settings: 15 min;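 further: purified furin at 1:10 enzyme:substrate in 50 mM HEPES pH 7.5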
Sequence (P09958 whole entry): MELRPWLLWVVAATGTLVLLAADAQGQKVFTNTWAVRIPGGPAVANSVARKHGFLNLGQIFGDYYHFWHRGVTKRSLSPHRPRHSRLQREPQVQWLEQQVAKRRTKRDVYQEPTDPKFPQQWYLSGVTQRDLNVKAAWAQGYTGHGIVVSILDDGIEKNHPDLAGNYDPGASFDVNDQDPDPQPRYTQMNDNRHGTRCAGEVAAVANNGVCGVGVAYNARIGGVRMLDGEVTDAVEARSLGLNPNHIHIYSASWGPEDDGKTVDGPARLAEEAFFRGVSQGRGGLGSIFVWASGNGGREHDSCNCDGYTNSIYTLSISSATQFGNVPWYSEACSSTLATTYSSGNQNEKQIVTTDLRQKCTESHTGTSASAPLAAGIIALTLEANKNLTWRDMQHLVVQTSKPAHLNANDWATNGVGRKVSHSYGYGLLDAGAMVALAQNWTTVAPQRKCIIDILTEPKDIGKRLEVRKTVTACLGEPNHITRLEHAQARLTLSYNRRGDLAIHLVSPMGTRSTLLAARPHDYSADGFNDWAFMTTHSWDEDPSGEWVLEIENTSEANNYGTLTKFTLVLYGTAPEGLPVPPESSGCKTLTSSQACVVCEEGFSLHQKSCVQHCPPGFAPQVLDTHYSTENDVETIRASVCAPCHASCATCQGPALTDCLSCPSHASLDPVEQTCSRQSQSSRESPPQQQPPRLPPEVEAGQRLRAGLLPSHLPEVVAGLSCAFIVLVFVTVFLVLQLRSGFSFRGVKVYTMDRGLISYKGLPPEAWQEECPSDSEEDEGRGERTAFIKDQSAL
The other results are listed elsewhere or left out. The true hit rate is not given.
Returns one of 1 or 0; 1 when furin cleavage Z-score is >= 4.

residue_codes | label
CARRKRKEKQAGNASASA [FS-3231] | 0
CAKCPRQRRAAGNASASA [FS-445] | 1
CAASSSASQLAGNASASA [HC1260] | 0
CADIARARRVAGNASASA [FS-121] | 0
CARPKRSKRQAGNASASA [FS-1068] | 1
CARPRRGSLRAGNASASA [FS-2502] | 0
CARPRRGSHPAGNASASA [FS-2359] | 0
CAISRRQRRVAGNASASA [FS-36] | 1

Form field: furin cleavage Z-score at least 4? Entry: CAQRRRSIRDAGNASASA [FS-287]
1

Form field: furin cleavage Z-score at least 4? Entry: CAKPMRQQRDAGNASASA [FS-343]
1

Form field: furin cleavage Z-score at least 4? Entry: CAMEDCSQHLAGNASASA [HC1711]
0
